assayed-target: Human GPR40 (Homo sapiens)
Sequence (O14842 whole entry): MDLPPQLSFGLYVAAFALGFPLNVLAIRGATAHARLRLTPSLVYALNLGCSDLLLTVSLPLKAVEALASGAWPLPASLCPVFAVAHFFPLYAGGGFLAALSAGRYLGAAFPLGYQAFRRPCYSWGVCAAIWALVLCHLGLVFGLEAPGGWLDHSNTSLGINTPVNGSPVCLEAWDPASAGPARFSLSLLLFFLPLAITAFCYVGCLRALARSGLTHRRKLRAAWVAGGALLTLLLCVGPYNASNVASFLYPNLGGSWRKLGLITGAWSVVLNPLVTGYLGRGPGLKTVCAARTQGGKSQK
protocol-notes: Inositol Phosphate Turnover (IP1) Assay 2
Assay type: cell-based
Parameters: expressed in transfected cells; host or cells: HEK cells stably expressing the aequorin reporter
details: HEK cells stably expressing human GPR40, 384-well, CisBio IP-One kit
pEC50: −log10 of the molar value.
value-kind: pEC50

[[record]]
compound = "Cc1cc(OCCC(C)(O)C(F)F)nc(C)c1-c1cc(COc2cc3c(cn2)C2[C@@H](C3)[C@@H]2C(=O)O)c(F)cc1F (stereo in doubt) [Example 17]"
value_kind = "pEC50"
quantitative_result = 8.68


(P) Cc1cc(OCC[C@@H](O)CO)c(F)cc1-c1cc(COc2cc3c(cn2)[C@H]2[C@@H](C3)[C@@H]2C(=O)O)c(F)cc1Cl [Example 26]
(Q) Cc1cc(OCCC(C)(O)CO)cc(C)c1-c1cc(COc2cc3c(cn2)[C@H]2[C@@H](C3)[C@@H]2C(=O)O)c(F)cc1F (stereo partly drawn) [Example 19]
Which one would you say has the larger pEC50 value: P , or Q ? # respond with the chosen item's label
P
(P: 9.15, Q: 8.80)
